These data points were gathered from patent US12435072B2.

Recorded log10 IC50, one value per entry.
Target: human recombinant AT1 receptor (Homo sapiens, UniProt P30556)
Sequence (P30556 1-359): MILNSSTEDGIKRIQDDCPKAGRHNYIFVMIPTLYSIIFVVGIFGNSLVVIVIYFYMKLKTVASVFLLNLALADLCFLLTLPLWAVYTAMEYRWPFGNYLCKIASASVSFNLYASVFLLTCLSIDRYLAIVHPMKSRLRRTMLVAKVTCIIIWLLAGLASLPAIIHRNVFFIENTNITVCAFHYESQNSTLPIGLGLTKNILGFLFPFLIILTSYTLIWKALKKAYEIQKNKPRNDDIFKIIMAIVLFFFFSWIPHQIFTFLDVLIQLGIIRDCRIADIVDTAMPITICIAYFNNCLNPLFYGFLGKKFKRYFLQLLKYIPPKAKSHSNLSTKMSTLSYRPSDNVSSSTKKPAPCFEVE
Assay: Binding to AT1 receptor, radiometric scintillation assay (Eurofins)
Conditions: ligand 125I(sar1,Ile8)-AT-II, tested at 1 and 10 μM
Assay endpoint: log10 IC50 (log10 of the value in µM)

>  <Entry smiles>
Cc1nccn1Cc1ccc(-c2cc(CC(C)C)sc2S(=O)(=O)NC(=O)NCCC(F)(F)F)cc1F

>  <log10 IC50>
1.40

$$$$
>  <Entry smiles>
Cc1nccn1Cc1ccc(-c2cc(CC(C)C)sc2S(=O)(=O)NC(=O)NCc2cccs2)cc1F.O=C(O)C(F)(F)F

>  <log10 IC50>
0.90

$$$$
>  <Entry smiles>
Cc1cn(Cc2ccc(-c3cc(CC(C)C)sc3S(=O)(=O)NC(=O)NCc3ccccc3)cc2)c(C)n1

>  <log10 IC50>
0.78

$$$$
>  <Entry smiles>
CC(C)Cc1cc(-c2ccc(Cn3ccnc3C(C)C)c(F)c2)c(S(=O)(=O)NC(=O)NCCCC(F)(F)F)s1

>  <log10 IC50>
0.70

$$$$
>  <Entry smiles>
Cc1nccn1Cc1ccc(-c2cc(CC(C)C)sc2S(=O)(=O)NC(=O)NCCc2c[nH]cn2)cc1F

>  <log10 IC50>
1.76

$$$$
>  <Entry smiles>
CCCNC(=O)NS(=O)(=O)c1sc(CC(C)C)cc1-c1ccc(Cn2ccnc2CC)c(F)c1.O=C(O)C(F)(F)F

>  <log10 IC50>
1.28

$$$$
>  <Entry smiles>
Cc1nccn1Cc1ccc(-c2cc(CC(C)C)sc2S(=O)(=O)NC(=O)N(C)Cc2ccccn2)cc1F

>  <log10 IC50>
1.76

$$$$
>  <Entry smiles>
Cc1nccn1Cc1ccc(-c2cc(CC(C)C)sc2S(=O)(=O)NC(=O)NCc2ccccn2)cc1F

>  <log10 IC50>
1.41

$$$$
>  <Entry smiles>
Cc1nccn1Cc1ccc(-c2cc(CC(C)C)sc2S(=O)(=O)NC(=O)NCC2CCC(F)(F)CC2)cc1F.O=C(O)C(F)(F)F

>  <log10 IC50>
1.23

$$$$
>  <Entry smiles>
Cc1nccn1Cc1ccc(-c2cc(CC(C)C)sc2S(=O)(=O)NC(=O)NCc2ccc(F)c(F)c2)cc1F.O=C(O)C(F)(F)F

>  <log10 IC50>
1.32

$$$$
>  <Entry smiles>
Cc1nccn1Cc1ccc(-c2cc(CC(C)C)sc2S(=O)(=O)NC(=O)NCc2nccn2C)cc1F

>  <log10 IC50>
2.67

$$$$

* * *

Recorded inhibition at 10 µM, one value per entry.
target: CYP2C19 (Homo sapiens, UniProt P33261); construct: incubated with human liver microsomes; tissue Eurofins ITEMG232; host or cells: human liver microsomes; assay: CYP inhibition in human liver microsomes, CYP2C19; assay type: in vitro ADME; details: probe omeprazole, substrate omeprazole, read-out: CYP2C19 Inh %
Sequence (P33261 whole entry): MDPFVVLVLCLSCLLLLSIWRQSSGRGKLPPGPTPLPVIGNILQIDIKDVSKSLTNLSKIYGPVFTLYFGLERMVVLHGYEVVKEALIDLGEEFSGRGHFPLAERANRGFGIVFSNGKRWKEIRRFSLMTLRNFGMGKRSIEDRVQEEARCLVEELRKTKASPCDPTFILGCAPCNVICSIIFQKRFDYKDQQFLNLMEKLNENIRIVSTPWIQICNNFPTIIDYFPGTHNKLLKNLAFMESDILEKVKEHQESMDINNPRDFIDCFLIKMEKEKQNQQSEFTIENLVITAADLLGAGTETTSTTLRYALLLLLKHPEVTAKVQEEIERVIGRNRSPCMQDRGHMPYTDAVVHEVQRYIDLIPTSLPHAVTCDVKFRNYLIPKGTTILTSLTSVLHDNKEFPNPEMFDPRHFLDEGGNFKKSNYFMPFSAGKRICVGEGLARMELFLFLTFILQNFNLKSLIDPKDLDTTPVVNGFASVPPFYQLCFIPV

>  <Compound>
Cc1nccn1Cc1ccc(-c2cc(CC(C)C)sc2S(=O)(=O)NC(=O)NCCC(F)(F)F)cc1F

>  <inhibition at 10 µM (%)>
62

$$$$
>  <Compound>
CCCCNC(=O)NS(=O)(=O)c1sc(CC(C)C)cc1-c1ccc(Cn2ccnc2C)cc1

>  <inhibition at 10 µM (%)>
37.5

$$$$
>  <Compound>
CCCNC(=O)NS(=O)(=O)c1sc(CC(C)C)cc1-c1ccc(Cn2ccnc2CC)c(F)c1.O=C(O)C(F)(F)F

>  <inhibition at 10 µM (%)>
26

$$$$
>  <Compound>
Cc1nccn1Cc1ccc(-c2cc(CC(C)C)sc2S(=O)(=O)NC(=O)NC(C)c2ccccn2)cc1F (centres unmarked)

>  <inhibition at 10 µM (%)>
56

$$$$
>  <Compound>
Cc1nccn1Cc1ccc(-c2cc(CC(C)C)sc2S(=O)(=O)NC(=O)NCCCC(F)(F)F)cc1

>  <inhibition at 10 µM (%)>
50.4

$$$$
>  <Compound>
Cc1nccn1Cc1ccc(-c2cc(CC(C)C)sc2S(=O)(=O)NC(=O)NCc2ccccn2)cc1F

>  <inhibition at 10 µM (%)>
40

$$$$
>  <Compound>
Cc1cn(Cc2ccc(-c3cc(CC(C)C)sc3S(=O)(=O)NC(=O)NCc3ccccn3)cc2)c(C)n1

>  <inhibition at 10 µM (%)>
53

$$$$
>  <Compound>
CCc1nccn1Cc1ccc(-c2cc(CC(C)C)sc2S(=O)(=O)NC(=O)NCCC(F)(F)F)cc1F.O=C(O)C(F)(F)F

>  <inhibition at 10 µM (%)>
53

$$$$
